Target: T1, 4H72-bH
T1 chain: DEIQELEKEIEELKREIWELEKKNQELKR
Assay: two-hybrid library CCNG1;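 also: natural log of median RNA to DNA barcode read ratio; higher means stronger binding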
readout: interaction score
Numbers only.

Examples with their reported interaction score follow.
Looking up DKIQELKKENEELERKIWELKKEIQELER [4H2729-bH] , I see its interaction score listed as -1.03

Looking up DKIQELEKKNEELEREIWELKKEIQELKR [4H2442-bH] , I see its interaction score listed as -2.01

Looking up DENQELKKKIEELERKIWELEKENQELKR [4H1828-bH] , I see its interaction score listed as 0.102

Looking up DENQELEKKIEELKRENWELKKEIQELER [4H1369-bH] , I see its interaction score listed as -1.58

Looking up DEIQELEKKNEELKREIWELKKKIQELKR [4H462-bH] , I see its interaction score listed as 0.335

Looking up DEIQELEKKIEELKRKNWELEKEIQELKR [4H370-bH] , I see its interaction score listed as -0.56

Kindly consider the entry below.
Looking up DEIQELEKKNEELKREIWELEKKIQELKR [4H454-bH] , I see its interaction score listed as 0.203
